Every entry's value here was drawn from paper PMC10409285.

Assay target: DP4.1 (HLA-DPA1*01:03/DPB1*04:01) (Homo sapiens, UniProt P04440+P20036)
Assay explanation: fluorescence polarization competition binding assay, DP4.1
Applied conditions: fluorescence polarization competition; soluble DP4.1-Clip 250 nM, 25 nM Alexa488 oxytocinase probe peptide, 500 nM HLA-DM, 24 h 37°C; mean of two independent experiments; read-out: Mean IC50, DPA*01:03/DPB1*04:01
Measurement name: pIC50
pIC50 field: float, defined as -log10 of concentration (mol/L).

Req: Entry under review: CC(C)C[C@H](NC(=O)[C@H](Cc1ccccc1)NC(=O)[C@@H](N)C(C)C)C(=O)N[C@@H](Cc1c[nH]cn1)C(=O)N[C@H](C(=O)N[C@H](C(=O)N[C@@H](Cc1ccc(O)cc1)C(=O)N[C@H](C(=O)N1CCC[C@H]1C(=O)N[C@@H](C)C(=O)N[C@@H](CCC(N)=O)C(=O)N[C@@H](CCC(=O)O)C(=O)N[C@@H](CCCCN)C(=O)N[C@@H](CC(N)=O)C(=O)N[C@@H](Cc1ccccc1)C(=O)N[C@H](C(=O)O)[C@@H](C)O)C(C)C)[C@@H](C)O)C(C)C [S#213 (CoV2)] . Reported pIC50?
Resp: 3.62

Req: Entry under review: CC[C@H](C)[C@H](NC(=O)[C@@H](NC(=O)[C@@H](N)CO)[C@@H](C)CC)C(=O)N[C@@H](C)C(=O)N[C@@H](Cc1ccc(O)cc1)C(=O)N[C@H](C(=O)N[C@@H](CCSC)C(=O)N[C@@H](CO)C(=O)N[C@@H](CC(C)C)C(=O)NCC(=O)N[C@@H](C)C(=O)N[C@@H](CCC(=O)O)C(=O)N[C@@H](CC(N)=O)C(=O)N[C@@H](CO)C(=O)N[C@H](C(=O)N[C@@H](C)C(=O)O)C(C)C)[C@@H](C)O [S#139 (CoV2)] . Reported pIC50?
Resp: 3.53
